Target: Glycogen synthase kinase-3 beta (Homo sapiens)
Details: at 1 µM
Value Kind: residual activity (%)
Please state the figure in %; there is no need to write the unit.

The cases that follow already have their residual activity on record.
[
  {
    "Structure": "COc1cc2ncnc(Nc3ccc(OCc4ccccc4)cc3)c2cc1OC",
    "Study Target": "Glycogen synthase kinase-3 beta (Homo sapiens)",
    "Value Kind": "residual activity",
    "Unit Symbol": "%",
    "Reading": 104
  },
  {
    "Structure": "COc1ccc2c(c[n+](C)c3c4cc5c(cc4ccc23)OCO5)c1OC",
    "Study Target": "Glycogen synthase kinase-3 beta (Homo sapiens)",
    "Value Kind": "residual activity",
    "Unit Symbol": "%",
    "Reading": 97
  },
  {
    "Structure": "CC(C)(C)c1cc(C=C(C#N)C#N)cc(Br)c1O",
    "Study Target": "Glycogen synthase kinase-3 beta (Homo sapiens)",
    "Value Kind": "residual activity",
    "Unit Symbol": "%",
    "Reading": 106
  },
  {
    "Structure": "O=C1Nc2ccc3ncsc3c2/C1=C/c1c[nH]cn1",
    "Study Target": "Glycogen synthase kinase-3 beta (Homo sapiens)",
    "Value Kind": "residual activity",
    "Unit Symbol": "%",
    "Reading": 4
  },
  {
    "Structure": "CCn1cnc2c(Nc3cccc(Cl)c3)nc(N[C@@H]3CCCC[C@@H]3N)nc21",
    "Study Target": "Glycogen synthase kinase-3 beta (Homo sapiens)",
    "Value Kind": "residual activity",
    "Unit Symbol": "%",
    "Reading": 132
  }
]

Prompt line: Param item = O=c1[nH]c2ccccc2n1C1CCN(Cc2ccc(-c3nc4cc5[nH]cnc5cc4nc3-c3ccccc3)cc2)CC1 ; retrieve measured residual activity.
Response line: 108

Prompt line: Need residual activity, item CC(C)[C@H](CO)Nc1nc(Nc2cccc(Cl)c2)c2ncn(C(C)C)c2n1
Response line: 134

Prompt line: For the compound COc1cc(OC)c(/C=C2\C(=O)Nc3ccccc32)c(OC)c1 , what residual activity is on record?
Response line: 132

Prompt line: Reported residual activity, compound CCc1nc(-c2ccc(OC)cc2)[nH]c1-c1ccncc1 : ____
Response line: 114
